ASSAY INFO: solvent given as SMILES
TEST CONTEXT: in CC#N
READOUT NAME: emission maximum

{"columns": ["SUBSTANCE SMILES", "RECORDED VALUE"],
 "data": [
  ["COC(=O)c1cc(=O)n(C)c2cc(-c3cccc(OC)c3)sc12", "463 nm"],
  ["Cc1ccc(N(c2ccc(C)cc2)c2ccc3c4cccc5c(N(c6ccc(C)cc6)c6ccc(C)cc6)ccc(c6cccc2c63)c54)cc1", "574 nm"],
  ["CC1=CC(C)=[N+]2C1=C(c1ccc(N(C)C)cc1)c1c(C)cc(C)n1[B-]2(F)F", "508 nm"]
]}

Next molecule, please.
Quick one: emission maximum for Cc1cc(C)n2c1C=C1c3ccccc3C(c3cccn3C)=[N+]1[B-]2(F)F ?
606 nm
